Below, each entry is listed with its recorded Foxtail, Green plant response rating.
system: foxtail, green (green foxtail, Setaria viridis); experiment: Test A postemergence, visual injury rating 0-100; assay type: in vivo; conditions: 125 g ai/ha, 0 to 100 scale
Respond with the number and no other words.

In the examples that follow, each entry is paired with its recorded Foxtail, Green plant response rating.
CC1=[N+]([O-])C(C(=O)Nc2ccncc2C(F)(F)F)C(c2ccc(C(F)(F)F)cc2)C1 (racemic) [Compound 36] = 0
CC1=[N+]([O-])C(C(=O)Nc2ccccc2[S+](C)[O-])C(c2ccc(C(F)(F)F)cc2)C1 (racemic) [Compound 44] = 0
CC1=[N+]([O-])C(C(=O)Nc2cccc(F)c2F)C(c2ccccc2)C1 (racemic) [Compound 16] = 10
CC1=[N+]([O-])C(C(=O)Nc2ccccc2C#N)C(c2ccc(C(F)(F)F)cc2)C1 (racemic) [Compound 32] = 20
CC1=[N+]([O-])[C@@H](C(=O)Nc2cccc(F)c2F)[C@H](c2ccc(F)c(F)c2)C1 [Compound 39] = 70
O=C(Nc1cccc(F)c1F)C1C(c2ccccc2)CC(C(F)(F)F)=[N+]1[O-] (racemic) [Compound 35] = 0

# context switch: different compound, same Foxtail, Green plant response rating
Request: Give me measured Foxtail, Green plant response rating, please, for this compound: CC1=[N+]([O-])C(C(=O)Nc2cccc(F)c2C#N)C(c2ccc(C(F)(F)F)cc2)C1 (racemic) [Compound 34]
Response: 0

----------
system: barnyardgrass (Echinochloa crus-galli); test: Test A postemergence, visual injury rating 0-100; format: in vivo; conditions: 500 g ai/ha, 0 to 100 scale
Below, each entry is listed with its recorded Barnyardgrass plant response rating.

In the examples that follow, each entry is paired with its recorded Barnyardgrass plant response rating.
CC1=[N+]([O-])[C@H](C(=O)Nc2cccc(F)c2F)[C@@H](c2ccc3c(c2)OC(F)(F)O3)C1 (relative stereo) = 90
CC1=[N+]([O-])C(C(=O)Nc2cccc(F)c2F)C(c2ccc(F)c(Oc3ncc(F)cn3)c2)C1 (racemic) = 70
CC1=[N+]([O-])C(C(=O)Nc2cccc(F)c2F)C(c2cc(C)nc(OC(F)F)c2)C1 (racemic) = 90
CC1=[N+]([O-])C(C(=O)Nc2cccc(F)c2F)C(c2ccc(C(F)(F)F)c(Cl)c2)C1 (racemic) = 80

Request: Give me measured Barnyardgrass plant response rating, please, for this compound: COc1cc(C2CC(C)=[N+]([O-])C2C(=O)Nc2cccc(F)c2F)cc(C)n1 (racemic)
Response: 80

Request: Give me measured Barnyardgrass plant response rating, please, for this compound: CC1=[N+]([O-])C(C(=O)Nc2cccc(F)c2F)C(c2cccc(Br)c2)C1 (racemic)
Response: 90

Request: Give me measured Barnyardgrass plant response rating, please, for this compound: CC1=[N+]([O-])C(C(=O)Nc2cccc(F)c2F)C(c2cc(F)c(C(F)(F)F)c(F)c2)C1 (racemic)
Response: 90

Request: Give me measured Barnyardgrass plant response rating, please, for this compound: COc1cc(C2CC(C)=[N+]([O-])C2C(=O)Nc2cccc(F)c2F)ccc1C(F)(F)F (centres unmarked)
Response: 90

----------
Below, each entry is listed with its recorded Ragweed plant response rating.
system: ragweed (common ragweed, Ambrosia elatior); assay: Test A postemergence, visual injury rating 0-100; format: in vivo; settings: 500 g ai/ha, 0 to 100 scale
Respond with the number and no other words.

CC1=[N+]([O-])C(C(=O)Nc2cccc(F)c2F)C(c2cccc(Cl)n2)C1 (stereo not drawn) = 0
CC1=[N+]([O-])C(C(=O)Nc2cccc(F)c2F)C(c2ccc(C(F)(F)F)c(Br)c2)C1 (racemic) = 20
CC1=[N+]([O-])C(C(=O)Nc2cccc(F)c2C#N)C(c2ccc(C(F)(F)F)cc2)C1 (racemic) = 50
CC1=[N+]([O-])C(C(=O)Nc2cccc(F)c2F)C(c2ccc(C(F)(F)F)nc2)C1 (racemic) = 40
CC1=[N+]([O-])C(C(=O)Nc2cccc(F)c2F)C(c2cccc(Cl)c2F)C1 (stereo not drawn) = 30
CC1=[N+]([O-])C(C(=O)Nc2ccccc2)C(c2ccc(F)c(F)c2)C1 (racemic) = 0
CC1=[N+]([O-])C(C(=O)Nc2cccc(F)c2F)C(c2ccc(C(F)(F)F)c(Cl)c2)C1 (racemic) = 50
CC1=[N+]([O-])C(C(=O)Nc2cccc(F)c2F)C(c2cc(C(F)(F)F)ccc2C)C1 (stereo not drawn) = 30

Request: Give me measured Ragweed plant response rating, please, for this compound: CC1=[N+]([O-])C(C(=O)Nc2cccc(F)c2F)C(c2cccc(C#N)c2)C1 (racemic)
Response: 0

Request: Give me measured Ragweed plant response rating, please, for this compound: CC1=[N+]([O-])C(C(=O)Nc2cccc(F)c2F)C(c2cc(C)cc(C(F)(F)F)c2)C1 (stereo not drawn)
Response: 70

Request: Give me measured Ragweed plant response rating, please, for this compound: CC1=[N+]([O-])C(C(=O)Nc2cccc(F)c2F)C(c2cccc(C)c2)C1 (racemic)
Response: 50

----------
Below, each entry is listed with its recorded Barnyardgrass plant response rating.
system: barnyardgrass (Echinochloa crus-galli); assay: Test A postemergence, visual injury rating 0-100; format: in vivo; conditions: 500 g ai/ha, 0 to 100 scale
Respond with the number and no other words.

CCC1=[N+]([O-])C(C(=O)Nc2cccc(F)c2F)C(c2ccc(C(F)(F)F)cc2)C1 (racemic) [Compound 120] = 70
CC1=[N+]([O-])C(C(=O)Nc2cccc(F)c2F)C(c2ccccc2F)C1 (racemic) [Compound 21] = 50
CC1=[N+]([O-])C(C(=O)Nc2cccc(F)c2F)C(c2cccc3c2CCC3)C1 (racemic) [Compound 118] = 80

# context switch: different compound, same Barnyardgrass plant response rating
Request: Give me measured Barnyardgrass plant response rating, please, for this compound: CC1=[N+]([O-])C(C(=O)Nc2cccc(F)c2F)C(c2cccc(Cl)c2C)C1 (racemic) [Compound 117]
Response: 80

----------
system: foxtail, green (green foxtail, Setaria viridis); assay: Test A preemergence, visual injury rating 0-100; type: in vivo; details: 500 g ai/ha, 0 to 100 scale
Excerpt: […]
Below, each entry is listed with its recorded Foxtail, Green plant response rating.
Respond with the number and no other words.

In the examples that follow, each entry is paired with its recorded Foxtail, Green plant response rating.
CC1=[N+]([O-])C(C(=O)Nc2cccc(F)c2F)C(c2ccc(Br)cc2)C1 (racemic) [Compound 20] = 90
CSc1ccccc1NC(=O)C1C(c2ccc(C(F)(F)F)cc2)CC(C)=[N+]1[O-] (racemic) [Compound 29] = 100
CC1=[N+]([O-])C(C(=O)Nc2cccc(F)c2F)C(c2ccccc2F)C1 (racemic) [Compound 21] = 90
CC1=[N+]([O-])C(C(=O)Nc2cccc(F)c2F)C(c2ccc(C#N)cc2)C1 (racemic) [Compound 22] = 70
CC1=[N+]([O-])C(C(=O)Nc2cccc(F)c2F)C(c2cccc(C#N)c2)C1 (racemic) [Compound 23] = 90
CC1=[N+]([O-])C(C(=O)Nc2cccc(F)c2F)C(c2cccc(Br)c2)C1 (racemic) [Compound 19] = 90
CC1=[N+]([O-])[C@@H](C(=O)Nc2ccccc2F)[C@H](c2ccc(C(F)(F)F)cc2)C1 (relative stereo) [Compound 26] = 100
CC1=[N+]([O-])[C@H](C(=O)Nc2cccc(F)c2F)[C@@H](c2ccc3c(c2)OC(F)(F)O3)C1 (relative stereo) [Compound 25] = 90

# context switch: different compound, same Foxtail, Green plant response rating
Request: Give me measured Foxtail, Green plant response rating, please, for this compound: CC1=[N+]([O-])C(C(=O)Nc2cccc(F)c2F)C(c2ccccc2)C1 (racemic) [Compound 16]
Response: 100

----------
system: barnyardgrass (Echinochloa crus-galli); test: Test A postemergence, visual injury rating 0-100; format: in vivo; conditions: 500 g ai/ha, 0 to 100 scale
From the text: […]
assay-endpoint: Barnyardgrass plant response rating
Respond with the number and no other words.

In the examples that follow, each entry is paired with its recorded Barnyardgrass plant response rating.
CC1=[N+]([O-])C(C(=O)Nc2cccc(F)c2F)C(c2cc(C)cc(CF)c2)C1 (racemic) [Compound 108] = 80
CSc1ccccc1NC(=O)C1C(c2ccc(C(F)(F)F)cc2)CC(C)=[N+]1[O-] (racemic) [Compound 29] = 30
CC1=[N+]([O-])[C@H](C(=O)Nc2cccc(F)c2F)[C@@H](c2ccc(C)cc2)C1 (relative stereo) [Compound 6] = 90
CC1=[N+]([O-])C(C(=O)Nc2cccc(F)c2F)C(c2cccc(Cl)c2)C1 (racemic) [Compound 3] = 90
CC1=[N+]([O-])[C@@H](C(=O)Nc2cccc(F)c2F)[C@H](c2ccc(Cl)cc2)C1 (relative stereo) [Compound 5] = 90

Request: Give me measured Barnyardgrass plant response rating, please, for this compound: CC1=[N+]([O-])C(C(=O)Nc2cccc(F)c2F)C(c2cc(C)n(Cc3ccc(Cl)cc3)c(=O)c2)C1 (racemic) [Compound 86]
Response: 0

Request: Give me measured Barnyardgrass plant response rating, please, for this compound: CC1=[N+]([O-])C(C(=O)Nc2cccc(F)c2F)C(c2ccc(Br)cn2)C1 (racemic) [Compound 66]
Response: 0
